These data points were gathered from the supplement of paper PMC10724198.

Reported protein stability index values are given for each entry in this list.
test system: Saccharomyces cerevisiae; assay: protein stability index of tFT-peptide fusion (C-terminal peptide) (PSI (0-1 scale)); higher = more stable (slower turnover); conditions: genetic background: das1 deletion; temperature: 30 C

- sequenceData: "YQGVIYGIDGDQ [POP2 C-terminal 12 aa]"
  protein stability index: 0.699
- sequenceData: "QMQQMAKQFGMG [SRP54 C-terminal 12 aa]"
  protein stability index: 0.686
- sequenceData: "RVAVIEDDEDED [LEO1 C-terminal 12 aa]"
  protein stability index: 0.688
- sequenceData: "PSYPSEKISYSK [ADO1 C-terminal 12 aa]"
  protein stability index: 0.702
- sequenceData: "VWSLYSRTALET [OAR1 C-terminal 12 aa]"
  protein stability index: 0.618
- sequenceData: "QLINGRKIIAGN [MOT2 C-terminal 12 aa]"
  protein stability index: 0.672
- sequenceData: "DGGVKRIRVWGY [DAL2 C-terminal 12 aa]"
  protein stability index: 0.706
- sequenceData: "DLEDEIEMEDVV [TFG2 C-terminal 12 aa]"
  protein stability index: 0.699
- sequenceData: "QAKLTAATNAKQ [PDC1 C-terminal 12 aa]"
  protein stability index: 0.698
- sequenceData: "KRSLTLPVGMKI [AIM44 C-terminal 12 aa]"
  protein stability index: 0.683
- sequenceData: "DLVAQQVVQDGH [MYO2 C-terminal 12 aa]"
  protein stability index: 0.7
- sequenceData: "KKLHEEYFGEDK [CRS1 C-terminal 12 aa]"
  protein stability index: 0.673
- sequenceData: "QIAFAWQNKPRL [PXP1 C-terminal 12 aa]"
  protein stability index: 0.815
- sequenceData: "YVFVFIIDFIIR [FUN26 C-terminal 12 aa]"
  protein stability index: 0.213
- sequenceData: "QEGGDNTKIKQN [RNP1 C-terminal 12 aa]"
  protein stability index: 0.731
- sequenceData: "DTVLRKFADYKI [MPS1 C-terminal 12 aa]"
  protein stability index: 0.704
- sequenceData: "IHENEESNENEG [RQC1 C-terminal 12 aa]"
  protein stability index: 0.702
- sequenceData: "TKWHDKFGKLKN [SHE2 C-terminal 12 aa]"
  protein stability index: 0.693
- sequenceData: "VDFLSKKLLKLR [YFL041W-A C-terminal 12 aa]"
  protein stability index: 0.694

====

system: Saccharomyces cerevisiae; test: protein stability index of tFT-peptide fusion (C-terminal peptide) (PSI (0-1 scale)); higher = more stable (slower turnover); conditions: genetic background: wild type; temperature: 37 C
Each entry gets N if its protein stability index stays under 0.4, and Y if its protein stability index is 0.4 or above.

- sequenceData: "FCSPFFFFLFRL"
  label: "N"
- sequenceData: "WGRAADRRRRLG"
  label: "N"
- sequenceData: "QHRAIKIEIKIN"
  label: "N"
- sequenceData: "GVYFIGISRCVC"
  label: "N"
- sequenceData: "VAFLYCHFFYCI"
  label: "Y"
- sequenceData: "RFFVRRVRVAVL"
  label: "Y"
- sequenceData: "SILVSIFILAMQ"
  label: "N"
- sequenceData: "PPQDQAPVGVND"
  label: "Y"
- sequenceData: "DLIGSVRRLFCV"
  label: "N"
- sequenceData: "ALVGEVLWFQLV"
  label: "Y"
- sequenceData: "FLPLLFFFFFRF"
  label: "Y"

====

tested on: Saccharomyces cerevisiae; test: protein stability index of tFT-peptide fusion (C-terminal peptide) (PSI (0-1 scale)); higher = more stable (slower turnover); conditions: genetic background: wild type; temperature: 30 C
This section presents sequences with their documented protein stability index values.
parameterMeasured: protein stability index

- sequenceData: "KRSLTLPVGMKI [AIM44 C-terminal 12 aa]"
  parameterMeasured: "protein stability index"
  quantitativeResult: 0.658
- sequenceData: "LFVTDGSLLLDL [EDC3 C-terminal 12 aa]"
  parameterMeasured: "protein stability index"
  quantitativeResult: 0.685
- sequenceData: "VHDQTNLELYYL [HUB1 C-terminal 12 aa]"
  parameterMeasured: "protein stability index"
  quantitativeResult: 0.69
- sequenceData: "NAPRFGVEYQMT [PHO89 C-terminal 12 aa]"
  parameterMeasured: "protein stability index"
  quantitativeResult: 0.67
- sequenceData: "EFIFRESRKHNV [ERP3 C-terminal 12 aa]"
  parameterMeasured: "protein stability index"
  quantitativeResult: 0.71
- sequenceData: "FCTVAKIIQCFL [YDR396W C-terminal 12 aa]"
  parameterMeasured: "protein stability index"
  quantitativeResult: 0.494
- sequenceData: "RVGQTNSPSDSQ [DFM1 C-terminal 12 aa]"
  parameterMeasured: "protein stability index"
  quantitativeResult: 0.695
- sequenceData: "LISCCCCCFRRC [YNL097W-A C-terminal 12 aa]"
  parameterMeasured: "protein stability index"
  quantitativeResult: 0.669
- sequenceData: "EKAERRKLSQGR [QRI5 C-terminal 12 aa]"
  parameterMeasured: "protein stability index"
  quantitativeResult: 0.681

====

tested on: Saccharomyces cerevisiae; experiment: protein stability index of tFT-peptide fusion (C-terminal peptide) (PSI (0-1 scale)); higher = more stable (slower turnover); settings: genetic background: doa10 deletion; temperature: 30 C

- sequenceData: "LLSFYFVLAYMV"
  protein stability index: 0.197
- sequenceData: "PLFFGVQAFGGV"
  protein stability index: 0.669
- sequenceData: "GDFYCSSVVLVV"
  protein stability index: 0.278
- sequenceData: "FFVEKRVFFGII"
  protein stability index: 0.197
- sequenceData: "GVCWCVLFVVGC"
  protein stability index: 0.226
- sequenceData: "REGDLLKFKMRP"
  protein stability index: 0.637
- sequenceData: "CGGLFDVALGVG"
  protein stability index: 0.477
- sequenceData: "ELDVRPMVFLVA"
  protein stability index: 0.295
- sequenceData: "FCFLLLVSFFFV"
  protein stability index: 0.211
- sequenceData: "IACVLSIFLNAA"
  protein stability index: 0.256
- sequenceData: "FSLSLFPYPFSL"
  protein stability index: 0.686
- sequenceData: "VPIIVVVYVFVT"
  protein stability index: 0.105
- sequenceData: "FVWWFFFLSVVS"
  protein stability index: 0.255
- sequenceData: "YVVYLQVCWMRS"
  protein stability index: 0.0911
- sequenceData: "CSRVVGLFFLVV"
  protein stability index: 0.371
- sequenceData: "VFWISRLYLASY"
  protein stability index: 0.42
- sequenceData: "LFSFFVFFFLLD"
  protein stability index: 0.375
- sequenceData: "GQSRLVADLRQV"
  protein stability index: 0.676
- sequenceData: "RCLHTSVFLIFP"
  protein stability index: 0.652
- sequenceData: "WVRIIIKLRASL"
  protein stability index: 0.274
- sequenceData: "YCILGSYRLCVG"
  protein stability index: 0.232
- sequenceData: "AFVVPLFLCCCG"
  protein stability index: 0.184
- sequenceData: "SPTIFLPLFLTS"
  protein stability index: 0.621
- sequenceData: "LFHSIPRLLLLK"
  protein stability index: 0.627
- sequenceData: "GGGGMGRRVGVG"
  protein stability index: 0.401
- sequenceData: "YVVCFFFKLFYF"
  protein stability index: 0.256
- sequenceData: "ALLWEFVPCSVR"
  protein stability index: 0.329
- sequenceData: "RPPPTPRSVLLN"
  protein stability index: 0.265
- sequenceData: "LFFFLFSLLIFF"
  protein stability index: 0.377
- sequenceData: "VSPPPLSPPLSR"
  protein stability index: 0.686
- sequenceData: "VWWWGGVGWLMV"
  protein stability index: 0.386

====

tested on: Saccharomyces cerevisiae; test: protein stability index of tFT-peptide fusion (C-terminal peptide) (PSI (0-1 scale)); higher = more stable (slower turnover); conditions: genetic background: wild type; temperature: 30 C
parameterMeasured: protein stability index

- sequenceData: "RHAFGSSHVRFF"
  parameterMeasured: "protein stability index"
  quantitativeResult: 0.679
- sequenceData: "SHLAHLHPHIAR"
  parameterMeasured: "protein stability index"
  quantitativeResult: 0.675
- sequenceData: "GYTDPYPAAAPS"
  parameterMeasured: "protein stability index"
  quantitativeResult: 0.639
- sequenceData: "FFPSSPFLPPPR"
  parameterMeasured: "protein stability index"
  quantitativeResult: 0.657
- sequenceData: "PLRRPPPRPPWP"
  parameterMeasured: "protein stability index"
  quantitativeResult: 0.494
- sequenceData: "PHPRPPLPLSLP"
  parameterMeasured: "protein stability index"
  quantitativeResult: 0.697
- sequenceData: "VFFCALCRLWLG"
  parameterMeasured: "protein stability index"
  quantitativeResult: 0.5
- sequenceData: "GVSSGVSFVLGH"
  parameterMeasured: "protein stability index"
  quantitativeResult: 0.702
- sequenceData: "FSGLELRVGCGA"
  parameterMeasured: "protein stability index"
  quantitativeResult: 0.732
- sequenceData: "PLLSPPSPLPPF"
  parameterMeasured: "protein stability index"
  quantitativeResult: 0.724
- sequenceData: "PVRFGNCPSILS"
  parameterMeasured: "protein stability index"
  quantitativeResult: 0.773
